Tested on: D54 LucT luciferase reporter counterscreen, luminescence, 24 h
Measurement description: reporter signal increase, D54 LucT cells – cell-based, luminescence, cherry pick, counter-screen for N-linked glycosylation inhibitor project, dose response (AID 624404)
Records with an inconclusive call do not appear.
Value kind: AC35

Some compounds with recorded AC35:
compound=CC(C)(C)c1ccc(C(=O)NNC(=O)c2cccc(Br)c2)cc1 value_measured="5040 nM"
compound=CCN(CC)c1ccc(/C=N/n2nnnc2N)c(O)c1 value_measured="336 nM"
compound="COc1cc2c(cc1OC)C(c1ccccc1)N(C(=O)c1ccco1)CC2 (stereo not drawn)" value_measured="375 nM"
compound=Cc1ccc(C(=O)N/C(=C\c2ccco2)C(=O)NCCc2c[nH]c3ccccc23)cc1 value_measured="1740 nM"
compound=O=C(NCCc1ccccc1)c1cc(-c2ccco2)on1 value_measured="1010 nM"
compound=c1ccc(CNc2ncnc3c2cnn3-c2ccccc2)cc1 value_measured="719 nM"

Please supply AC35 for each of the following items, keeping them in order.
1. CC(C)c1c(C(=O)Nc2ccccc2)c(-c2ccccc2)c(-c2ccc(F)cc2)n1CC[C@@H](O)C[C@@H](O)CC(=O)O
2. COc1cc(C(=O)Nc2cc(C(F)(F)F)ccc2N2CCOCC2)ccc1OCC(=O)N1CCOCC1
3. COC(=O)/C=C1\C(=O)N(c2nc3ccccc3s2)C(=S)N1c1ccc(F)cc1

["1260 nM", "2130 nM", "14.9 nM"]

* * *

Tested on: D54 LucT luciferase reporter counterscreen, luminescence, 24 h
Measurement description: reporter signal increase, D54 LucT cells – cell-based, luminescence, cherry pick, counter-screen for N-linked glycosylation inhibitor project, dose response (AID 624404)
Inconclusive results are not listed.
Task for the reader: assign each of the following compounds its reported AC35.

Some compounds with recorded AC35:
smiles_string=O=C1C=C(c2cccs2)C[C@H](c2ccccc2)[C@H]1n1nnc([N+](=O)[O-])n1 value_measured="208 nM"
smiles_string=Cc1ccc(-c2nc(NCCCN(C)C)c3ccccc3n2)cc1 value_measured="3890 nM"
smiles_string=O=C(O)c1ccc(N/N=C/c2ccc(-c3ccc(Cl)cc3Cl)o2)cc1 value_measured="1470 nM"

Given the compound CCNC(=O)COc1ccc(/C=C2\COc3ccccc3C2=O)cc1OC , what is its reported AC35?
4800 nM

* * *

Test system: D54 LucT luciferase reporter counterscreen, luminescence, 24 h
Measurement description: reporter signal increase, D54 LucT cells – cell-based, luminescence, cherry pick, counter-screen for N-linked glycosylation inhibitor project, dose response (AID 624404)
Results filed as inconclusive are left out.
Value kind: AC35

smiles_string=COc1ccc(OC)c(-c2cc(-c3cccnc3)nc(N)c2C#N)c1 system="D54 LucT luciferase reporter counterscreen, luminescence, 24 h" value_measured="227 nM"
smiles_string=COC(=O)c1cn(C(=O)c2cccc3ccccc23)c2ccccc12 system="D54 LucT luciferase reporter counterscreen, luminescence, 24 h" value_measured="284 nM"
smiles_string=COC(=O)c1c(NC(=O)c2cccnc2Cl)sc(C(=O)N(C)C)c1C system="D54 LucT luciferase reporter counterscreen, luminescence, 24 h" value_measured="1380 nM"
smiles_string=Cc1nnc2c3ccccc3c(-c3ccccc3)nn12 system="D54 LucT luciferase reporter counterscreen, luminescence, 24 h" value_measured="221 nM"

Please supply AC35 for each of the following items, keeping them in order.
1. CC(=O)Nc1cccc(NC(=O)c2ccccc2OCc2ccccc2)c1
2. O=C(N/N=C/c1ccccn1)c1sc2ccccc2c1Cl
3. CCOc1ccc2[nH]c(C(=O)N/N=C/c3cc(OC)c(OC)c(OC)c3)cc2c1
4. COc1ccc2c(c1)OC[C@H]1[C@H]2N2C(=O)c3cc(OC)ccc3NC(=O)[C@@]2(C)[C@H]1c1ccccc1
5. Oc1ccc(Nc2nc(N3CCCC3)c3ccccc3n2)cc1

["3830 nM", "93.1 nM", "3270 nM", "1080 nM", "150 nM"]
